The measurements presented in this section are drawn from paper PMC12261321.

# Test system: A. baumannii 5075
# Experiment Description: Compound intracellular accumulation in A. baumannii 5075
# Format: cell-based
# Conditions: cells treated with 30 µM compound
Property Measured: Intracell. Accum, A. baumannii 5075 (nmol/1012 CFU)
Write the value in nmol/1012 CFU as a bare number.

Example entries begin here.
O=C1NC(=O)c2c(NCc3cccc(Br)c3O)cccc21 | 201
O=C1NC(=O)c2c(NCc3c(O)cccc3F)cccc21 | 495

Enquiry: Tell me Intracell. Accum, A. baumannii 5075 reported for O=C1NC(=O)c2c(NCc3ccccc3O)cccc21
Return: 55

Enquiry: Read off the recorded Intracell. Accum, A. baumannii 5075 for Cc1ccc(CNc2cccc3c2C(=O)NC3=O)c(O)c1
Return: 193

Enquiry: Indicate the recorded Intracell. Accum, A. baumannii 5075 value for this compound: O=C1NC(=O)c2c(NCc3cccc(Cl)c3O)cccc21
Return: 169

Enquiry: Note Intracell. Accum, A. baumannii 5075 for the compound shown: Cc1cccc(CNc2cccc3c2C(=O)NC3=O)c1O
Return: 99

Enquiry: Give reported Intracell. Accum, A. baumannii 5075 value for O=C1NC(=O)c2c(NCc3cccc(F)c3O)cccc21
Return: 44

Enquiry: Consider the compound O=C1NC(=O)c2c(NCc3cc(Br)c(O)cc3O)cccc21 and give its recorded Intracell. Accum, A. baumannii 5075.
Return: 86

Enquiry: // Input: O=C1NC(=O)c2c(NCc3cc(F)ccc3O)cccc21 . Output its Intracell. Accum, A. baumannii 5075 only.
Return: 157

Enquiry: Supply reported Intracell. Accum, A. baumannii 5075 belonging to this compound: O=C1NC(=O)c2c(NCc3cc(F)ccc3O)ccc(Br)c21
Return: 1173

Enquiry: Consider the compound O=C1NC(=O)c2c(NCc3c(O)cccc3Cl)cccc21 and give its recorded Intracell. Accum, A. baumannii 5075.
Return: 2614
